# test.summary: Human HepG2 cell viability assay in 384 well format
# Format: toxicity, cell-based
# Parameters: dose 125 nL, time 70.5 hour; concentration not given beside the values
# assay.context: HepG2 cells, read-out: Inhibition
parameter.measured: cytotoxicity at 70.5 h (%)
Your answer should be a plain number; it is taken to be in %.

### Prompt Could you share which cytotoxicity at 70.5 h value was measured for CCN(CC)c1ccc(C(=O)N2CCCC(n3cncn3)C2)cn1 (configuration not stated) ?
### Response -4.12

### Prompt Here is the next molecule: Cc1nc(N2CCC3(CCOC3)C2)c2cc[nH]c2n1 (configuration not stated)
### Response 27.9

### Prompt Same for COC[C@@]12CCC[C@@H]1CN(C(=O)CN(C)C)C2
### Response -6.84

### Prompt Next record, please: CCc1cnc(NCCCN2CCC(O)CC2)nc1
### Response -1.08

### Prompt Next molecule: O=C1COc2cc(C(=O)NS(=O)(=O)c3ccc(F)cc3)ccc2N1
### Response -17.6

### Prompt Try CN1CCC(C)(CN(C)C(=O)c2ccc(CCC(C)(C)O)cc2)C1 (configuration not stated) next.
### Response -1.78

### Prompt Quick one: Cc1nc(N(C)C)nc2c1COCC21CCN(C(=O)NCC(C)C)C1 (configuration not stated)
### Response -7.67

### Prompt Follow-up entry: CC(C)(C)C(O)CCNC(=O)c1ccc(F)cc1Cl (configuration not stated)
### Response -16.1

### Prompt Thanks! And CC(C)Cn1nnnc1SC(C(=O)NCc1cccnc1)C(C)C (configuration not stated) ?
### Response -4.78

### Prompt Queued: CC(C)COC(C)C(=O)NCc1ccc(F)cc1 (configuration not stated)
### Response -19.1

### Prompt Then Cc1cnc2n(c1=O)C(CC(=O)NCc1ccco1)CS2 (configuration not stated) ?
### Response -0.737

### Prompt Next up: CN1CCC2(COCCN(Cc3ccc4c(c3)OCO4)C2)C1 (configuration not stated)
### Response 13.5
